test system: KRAS-mutant PDC tumor spheroid with HUVEC/MSC, viability; test: Anticancer human tumor 327498-153-R-J2-PDC patient-derived uterine carcinosarcoma cell line growth inhibition [KRAS2]; settings: curve of first compound; second compound 1 µM
pIC50: −log10 of the molar value.
measurementKind: pIC50

Notebook: pull reported pIC50 for KRAS-mutant PDC tumor spheroid with HUVEC/MSC, viability, entry COC(=O)c1ccc2c(C(=Nc3ccc(N(C)C(=O)CN4CCN(C)CC4)cc3)c3ccccc3)c(O)[nH]c2c1 + C=CC(=O)N1CCN(c2nc(=O)n(-c3c(C)ccnc3C(C)C)c3nc(-c4c(O)cccc4F)c(F)cc23)C(C)C1 > 7.50

And the next one, CN(C)C/C=C/C(=O)Nc1cc2c(Nc3ccc(F)c(Cl)c3)ncnc2cc1O[C@H]1CCOC1 + COc1cc2nc(C)nc(NC(C)c3cc(N)cc(C(F)(F)F)c3)c2cc1OC1CCOC1 ? < 7.00

And the next one, CN(C)C/C=C/C(=O)Nc1cc2c(Nc3ccc(F)c(Cl)c3)ncnc2cc1O[C@H]1CCOC1 + CC1OCC2(CCN(c3cnc(Sc4ccnc(N)c4Cl)c(N)n3)CC2)C1N ? < 7.00

* * *

tested on: KRAS-mutant PDC tumor spheroid with HUVEC/MSC, viability; assay: Anticancer human tumor 327498-153-R-J2-PDC cell line growth inhibition [KRAS2]; settings: curve of first compound; second compound 1 µM;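 note: spheroids exposed to agents for seven days before reading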
IC50 less than 1000 nM is yes (1); IC50 greater than or equal to 1000 nM is no (0).

Below 1000 nM on IC50? Entry O=C(c1cc(Cc2n[nH]c(=O)c3ccccc23)ccc1F)N1CCN(C(=O)C2CC2)CC1 + CNCc1ccccc1-c1csc(C(C)Nc2nc(C)nc3cc(OC)c(OC)cc23)c1 no (0)

And the next one, Cn1ncnc1[C@H]1c2n[nH]c(=O)c3cc(F)cc(c23)N[C@@H]1c1ccc(F)cc1 + COc1cc2nc(C)nc(NC(C)c3cc(N)cc(C(F)(F)F)c3)c2cc1OC1CCOC1 ? yes (1)

And the next one, CC(=O)OC12COC1CC(O)C1(C)C(=O)C(O)C3=C(C)C(OC(=O)C(O)C(NC(=O)OC(C)(C)C)c4ccccc4)CC(O)(C(OC(=O)c4ccccc4)C21)C3(C)C (stereo not given) + CNCc1ccccc1-c1csc(C(C)Nc2nc(C)nc3cc(OC)c(OC)cc23)c1 ? yes (1)

And the next one, Cn1ncnc1[C@H]1c2n[nH]c(=O)c3cc(F)cc(c23)N[C@@H]1c1ccc(F)cc1 + C=CC(=O)N1CCN(c2nc(OCC3CCCN3C)nc3c2CCN(c2cccc4cccc(C)c24)C3)CC1CC#N ? yes (1)

And the next one, CC(C)NCC(C(=O)N1CCN(c2ncnc3c2C(C)CC3O)CC1)c1ccc(Cl)cc1 (stereo not given) + C=CC(=O)N1CCN(c2nc(OCC3CCCN3C)nc3c2CCN(c2cccc4cccc(C)c24)C3)CC1CC#N ? yes (1)

And the next one, CC1(C)CCC(CN2CCN(c3ccc(C(=O)NS(=O)(=O)c4ccc(NCC5CCOCC5)c([N+](=O)[O-])c4)c(Oc4cnc5[nH]ccc5c4)c3)CC2)=C(c2ccc(Cl)cc2)C1 + CNCc1ccccc1-c1csc(C(C)Nc2nc(C)nc3cc(OC)c(OC)cc23)c1 ? no (0)

And the next one, O=C(c1cc(Cc2n[nH]c(=O)c3ccccc23)ccc1F)N1CCN(C(=O)C2CC2)CC1 + COc1cc2nc(C)nc(NC(C)c3cc(N)cc(C(F)(F)F)c3)c2cc1OC1CCOC1 ? no (0)

And the next one, Cn1ncnc1[C@H]1c2n[nH]c(=O)c3cc(F)cc(c23)N[C@@H]1c1ccc(F)cc1 + C=CC(=O)N1CCN(c2nc(=O)n(-c3c(C)ccnc3C(C)C)c3nc(-c4c(O)cccc4F)c(F)cc23)C(C)C1 ? yes (1)

These measurements were taken from PubChem BioAssay AID1963867.
